Parameter pKi: see the listing below.
target: hCA IX (Homo sapiens, UniProt Q16790); assay: CA inhibition, CO2 hydration method, isozyme IX (catalytic domain); type: biochemical; conditions: Table 1, catalytic domain of human cloned isozyme
Quick note: pKi values are minus log10 of concentrations in mol/L.

Consider the worked cases shown below.
compound | numeric readout
NS(=O)(=O)c1ccc(NC(=S)Nc2ccc(-c3c4ccc(=O)cc-4oc4cc(O)ccc34)c(C(=O)O)c2)c(Br)c1 [5g] | 7.46
NS(=O)(=O)c1cccc(NC(=S)Nc2ccc(-c3c4ccc(=O)cc-4oc4cc(O)ccc34)c(C(=O)O)c2)c1 [5i] | 7.47

Tell me pKi reported for NS(=O)(=O)c1ccc(NNC(=S)Nc2ccc(-c3c4ccc(=O)cc-4oc4cc(O)ccc34)c(C(=O)O)c2)cc1 [5d]
7.60
